// data source = patent US20230064189A1

# Study Target: AKT3 (Homo sapiens, UniProt Q9Y243)
# Sequence (Q9Y243 148-405 limits assumed): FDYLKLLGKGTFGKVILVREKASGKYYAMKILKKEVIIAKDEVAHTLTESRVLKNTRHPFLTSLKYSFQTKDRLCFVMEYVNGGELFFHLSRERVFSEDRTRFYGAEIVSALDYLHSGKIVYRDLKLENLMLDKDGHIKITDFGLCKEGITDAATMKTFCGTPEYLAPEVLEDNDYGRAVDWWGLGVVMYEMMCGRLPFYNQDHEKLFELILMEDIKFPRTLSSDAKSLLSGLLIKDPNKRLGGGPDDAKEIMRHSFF
# Procedure Details: AKT3 enzymatic inhibition assay (HTRF KinEASE)
# Assay type: biochemical
# Stated Conditions: read-out: AKT3 pIC50 (converted)
Doc: threshold 7 nM (exclusive). Items with IC50 beneath it return satisfied; others return not satisfied.

• CN(C)CC(c1ccc(Cl)cc1)N1CCN(c2ncnc3[nH]nc(Br)c23)CC1 (centres unmarked) [Example 1] = satisfied
• CN(C)CCNC(c1ccc(Cl)cc1)C1CCN(c2ncnc3[nH]nc(Br)c23)CC1 (centres unmarked) [Example 9] = satisfied

## Input Dear colleague, could you confirm whether IC50 of CN(C)CCOC(c1ccc(Cl)cc1)C1CCN(c2ncnc3[nH]nc(Br)c23)CC1 (centres unmarked) [Example 2] falls below 7 nM? Thanks.
## Output satisfied

## Input Is it true that IC50 reported for CN(C)CCCCC(O)(c1ccc(Cl)cc1)C1CCN(c2ncnc3[nH]nc(Br)c23)CC1 (centres unmarked) [Example 14] is less than 7 nM?
## Output satisfied

## Input In plain terms, does CN(C)CCCC(=C1CCN(c2ncnc3[nH]nc(C(F)(F)F)c23)CC1)c1ccc(Cl)cc1 [Example 15] come in under 7 nM for IC50?
## Output not satisfied

## Input Is it true that IC50 reported for CN(C)C(=O)C(c1ccc(Cl)cc1)N1CCN(c2ncnc3[nH]nc(Br)c23)CC1 (centres unmarked) [Example 4] is less than 7 nM?
## Output not satisfied

## Input Just wondering, is IC50 of Cc1n[nH]c2ncnc(N3CCC(C(OCCN(C)C)c4ccc(Cl)cc4)CC3)c12 (centres unmarked) [Example 5] below 7 nM?
## Output not satisfied

## Input Please state whether IC50 is below 7 nM for CN(C)CCNC(c1ccc(Cl)cc1)C1CCN(c2ncnc3[nH]nc(C(F)(F)F)c23)CC1 (single isomer, unassigned; (-)) [Example 12b]
## Output satisfied
